# Test system: OCI-LY10
# assay name: CTG Cell Viability Assay - OCI-LY10
# Type: cell-based, human
# run parameters: OCI-LY10, 4 days; read-out: CTG Cell Viability Assay - OCI-LY10: Average external-IC50
pIC50: −log10 of the molar value.
parameter measured: pIC50

Hi there! I need pIC50 for each item below, if you can.
1. CN(C[C@@H]1CN(CCCCc2cccc3c2C(=O)N(C2CCC(=O)NC2=O)C3=O)CCO1)C[C@H]1CC[C@H](n2cc(NC(=O)c3coc(-c4ccnc(NCC5CC5)c4)n3)c(C(F)F)n2)CC1 (some centres unmarked)
2. Cn1c(=O)n(C2CCC(=O)NC2=O)c2cccc(CCCOC3CCN(C[C@H]4CC[C@H](n5cc(NC(=O)c6cnn7ccc(NCC8CC8)nc67)c(C(C)(C)O)n5)CC4)CC3)c21 (some centres unmarked)

Reply text:
> 7.30
< 6.00

Give pIC50 for each listed item.
1. CN1C(=O)C(C2CCC(=O)NC2=O)c2cccc(CCCOC3CCN(CC4CCC(n5cc(NC(=O)c6cnn7ccc(NC8CCCCC8O)nc67)c(C(F)F)n5)CC4)CC3)c21 (centres unmarked)
2. O=C1CCC(N2C(=O)c3cccc(NCCCOCCCOCCCN4CCC(n5cc(NC(=O)c6cnn7ccc(N8C[C@H]9C[C@@H]8CO9)nc67)c(C(F)F)n5)CC4)c3C2=O)C(=O)N1 (some centres unmarked)
3. O=C1CCC(N2C(=O)c3cccc(OCCCOC4CCN(C[C@H]5CC[C@H](n6cc(NC(=O)c7cnn8ccc(N9CCOCC9)nc78)c(C(F)F)n6)CC5)CC4)c3C2=O)C(=O)N1 (some centres unmarked)

Reply text:
["< 6.00", "< 6.00", "< 6.00"]

* * *

# target desc: IRAK4 (Homo sapiens (Human))
# assay name: IRAK4 MSD degradation in OCI-LY10
# Format: cell-based
# run parameters: OCI-LY10, 4 hrs, MSD; read-out: IRAK4 MSD degradation in OCI-LY10 at 4 hrs: Average external-Abs DC50
I'd appreciate it if you could supply DC50 values for the items below.

1. Cn1c(=O)n(C2CCC(=O)NC2=O)c2cccc(CCCO[C@H]3CCN(C[C@H]4CC[C@H](n5cc(NC(=O)c6coc(-c7ccnc(NCC8CC8)c7)n6)c(C(F)F)n5)CC4)C3)c21 (some centres unmarked) :: 10 to 100 nM
2. Cn1c(=O)n(C2CCC(=O)NC2=O)c2cccc(CN3CCC(CC4CCN(C[C@H]5CC[C@H](n6cc(NC(=O)c7coc(-c8ccnc(NCC9CC9)c8)n7)c(C(F)F)n6)CC5)CC4)CC3)c21 (some centres unmarked) :: < 10 nM
3. CN1C(=O)CCC(N2Cc3c(OCc4ccc(CN5CCN(C[C@H]6CC[C@H](n7cc(NC(=O)c8cnn9ccc(N%10CCOCC%10)nc89)c(C(F)F)n7)CC6)CC5)cc4)cccc3C2=O)C1=O (some centres unmarked) :: 100 to 1000 nM
4. CN1C(=O)CCC(N2C(=O)c3cccc(NCCCOC4CCN(C[C@H]5CC[C@H](n6cc(NC(=O)c7cnn8ccc(N9CCOCC9)nc78)c(C(F)F)n6)CC5)CC4)c3C2=O)C1=O (some centres unmarked) :: > 1000 nM

# ---- query compound ----
Inquiry: Please give the documented DC50 of CC[C@@H]1[C@H](F)C(=O)N[C@@H]1COc1ncc(C#CC2CCN(CCCOCCCc3cccc4c3n(C)c(=O)n4C3CCC(=O)NC3=O)CC2)c2cc(C(N)=O)c(OC)cc12 (some centres unmarked)
Reply text: 100 to 1000 nM

* * *

So I've got a bunch of molecules here, and I need their pIC50 values.
# Test system: OCI-LY10
# assay name: CTG Cell Viability Assay - OCI-LY10
# Format: cell-based, human
# run parameters: Homo sapiens, OCI-Ly10, 96 h, OCI-LY10, 4 days; read-out: CTG Cell Viability Assay - OCI-LY10: Average external-IC50
pIC50: −log10 of the molar value.

Consider the reported pIC50 for these molecules:
1) Cn1c(=O)n(C2CCC(=O)NC2=O)c2cccc(CCCOC3CCN(C[C@H]4CC[C@H](n5cc(NC(=O)c6cnn7ccc(N8C[C@H](N)CC(F)(F)C8)nc67)c(C(F)F)n5)CC4)CC3)c21 (stereo partly drawn) :: < 6.00
2) Cn1c(=O)n(C2CCC(=O)NC2=O)c2ccc(CCCOCC3CCN(C[C@H]4CC[C@H](n5cc(NC(=O)c6cnn7ccc(N8CCNCC8)nc67)c(C(F)F)n5)CC4)CC3)cc21 (stereo partly drawn) :: < 6.00

Now consider a different molecule.
Inquiry: Hello, please tell me recorded pIC50 for this one: Cn1c(=O)n(C2CCC(=O)NC2=O)c2ccc(CCCCOCCCCNC[C@H]3CC[C@H](n4cc(NC(=O)c5coc(-c6ccnc(NCC(F)(F)F)c6)n5)c(C(N)=O)n4)CC3)cc21 (stereo partly drawn)
Reply text: < 6.00

* * *

Kindly state DC50 for each of the entries shown.
# target desc: IRAK4 (Homo sapiens (Human))
# assay name: IRAK4 MSD degradation in OCI-LY10
# Assay type: cell-based
# run parameters: OCI-LY10, 4 hrs; read-out: IRAK4 MSD degradation in OCI-LY10 at 4 hrs: DC50

// solved cases for DC50 follow
1) CN(C[C@H]1CC[C@H](C2N=C(NC(=O)c3cnn4ccc(N5C[C@H]6C[C@@H]5CO6)nc34)C(C(F)F)=N2)CC1)C1CCC2(CC1)CC(Cc1cccc3c1n(C)c(=O)n3C1CCC(=O)NC1=O)C2 (stereo partly shown) :: 10 to 100 nM
2) CN(CC1CC1)c1ccn2ncc(C(=O)Nc3cn([C@H]4CC[C@H](CN(C)[C@H]5CC[C@H](Nc6cccc7c6C(=O)N(C6CCC(=O)NC6=O)C7=O)CC5)CC4)nc3C(F)F)c2n1 (stereo partly shown) :: 10 to 100 nM
3) Cn1c(=O)n(C2CCC(=O)NC2=O)c2cccc(C#CCOC3CCN(C[C@H]4CC[C@H](n5cc(NC(=O)c6cnn7ccc(N8CCOC9(CCC9)C8)nc67)c(C(F)F)n5)CC4)CC3)c21 (stereo partly shown) :: 10 to 100 nM

Below: the item to evaluate.
Inquiry: Entry C[C@@H](CCNc1cccc2c1C(=O)N(C1CCC(=O)NC1=O)C2=O)OC1CCN(C[C@H]2CC[C@H](n3cc(NC(=O)c4cnn5ccc(N6C[C@H]7C[C@@H]6CO7)nc45)c(C(F)F)n3)CC2)CC1 (stereo partly shown) needs its DC50 filled in; supply it.
Reply text: 100 to 1000 nM

* * *

# target desc: IRAK4 (Homo sapiens (Human))
# assay name: IRAK4 degradation in human whole blood lymphocyte - flow cytometry
# Assay type: cell-based
# run parameters: read-out: IRAK4 degradation in whole blood lymphocyte-Flow cytometry: Average external Abs IC50
parameter measured: DC50

# annotated cases, reported DC50 shown
1. Cn1c(=O)n(C2CCC(=O)NC2=O)c2cccc(CCCOCCOCCNC[C@H]3CC[C@H](n4cc(NC(=O)c5coc(-c6ccnc(NCC(F)(F)F)c6)n5)c(C(N)=O)n4)CC3)c21 (some centres unmarked) :: < 50 nM
2. NC(=O)c1nn([C@H]2CC[C@H](CNCCCOCCCc3cccc4c3oc(=O)n4C3CCC(=O)NC3=O)CC2)cc1NC(=O)c1coc(-c2ccnc(NCC(F)(F)F)c2)n1 (some centres unmarked) :: 100 to 500 nM
3. Cn1c(=O)n(C2CCC(=O)NC2=O)c2cccc(CCCOCC3CN(C[C@H]4CC[C@H](n5cc(NC(=O)c6coc(-c7ccnc(NCC8CC8)c7)n6)c(C(F)F)n5)CC4)C3)c21 (some centres unmarked) :: 50 to 100 nM

Hello, I would appreciate it if you could give DC50 for each entry below.
1. Cn1c(=O)n(C2CCC(=O)NC2=O)c2cccc(CCCOCCOCCNC(=O)[C@H]3CC[C@H](n4cc(NC(=O)c5coc(-c6ccnc(NCC7CC7)c6)n5)c(C(F)F)n4)CC3)c21 (some centres unmarked)
2. CN(CCOCCOCCCc1ccc2c(c1)oc(=O)n2C1CCC(=O)NC1=O)C[C@H]1CC[C@H](n2cc(NC(=O)c3coc(-c4ccnc(NCC5CC5)c4)n3)c(C(F)F)n2)CC1 (some centres unmarked)
3. Cn1c(=O)n(C2CCC(=O)NC2=O)c2cccc(CCCOCCOCCNC[C@H]3CC[C@H](n4cc(NC(=O)c5coc(-c6ccnc(NCC7CC7)c6)n5)c(C(F)F)n4)CC3)c21 (some centres unmarked)

Reply text:
1. 100 to 500 nM
2. 100 to 500 nM
3. < 50 nM

* * *

# target desc: IRAK4 (Homo sapiens (Human), UniProt Q9NWZ3)
# Sequence (Q9NWZ3 whole entry): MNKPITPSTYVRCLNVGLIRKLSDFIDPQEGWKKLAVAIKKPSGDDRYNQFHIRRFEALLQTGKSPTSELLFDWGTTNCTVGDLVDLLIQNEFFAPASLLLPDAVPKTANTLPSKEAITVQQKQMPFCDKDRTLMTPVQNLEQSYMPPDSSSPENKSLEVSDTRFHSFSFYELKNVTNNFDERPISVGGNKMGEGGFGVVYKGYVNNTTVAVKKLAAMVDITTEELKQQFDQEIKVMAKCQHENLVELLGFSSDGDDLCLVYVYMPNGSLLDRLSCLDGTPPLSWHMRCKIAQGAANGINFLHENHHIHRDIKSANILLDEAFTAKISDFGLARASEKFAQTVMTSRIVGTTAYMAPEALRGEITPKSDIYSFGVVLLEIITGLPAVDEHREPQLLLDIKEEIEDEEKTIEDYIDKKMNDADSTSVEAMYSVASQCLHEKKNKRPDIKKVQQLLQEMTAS
# assay name: IRAK4 MSD degradation in OCI-LY10
# Format: cell-based
# run parameters: OCI-LY10, 4 hrs; read-out: IRAK4 MSD degradation in OCI-LY10 at 4 hrs: DC50
Hi there, I'd appreciate the recorded DC50 for every entry that follows.

Below, each entry is followed by its recorded DC50 result.
1. Cn1c(=O)n(C2CCC(=O)NC2=O)c2cccc(CCCN3CC4CN(C(=O)[C@H]5CC[C@H](n6cc(NC(=O)c7cnn8ccc(N9C[C@H]%10C[C@@H]9CO%10)nc78)c(C(F)F)n6)CC5)CC4C3)c21 (stereo partly shown) [I-449] :: < 10 nM
2. Cn1c(=O)n(C2CCC(=O)NC2=O)c2cccc(CN3C[C@H]4CC[C@@H](C3)N4CC[C@H]3CC[C@H](n4cc(NC(=O)c5cnn6ccc(N7C[C@H]8C[C@@H]7CO8)nc56)c(C(F)F)n4)CC3)c21 (stereo partly shown) [I-511] :: 10 to 100 nM
3. CN(CC1(CNc2cccc3c2C(=O)N(C2CCC(=O)NC2=O)C3=O)CCC1)C[C@H]1CC[C@H](n2cc(NC(=O)c3cnn4ccc(N5C[C@H]6C[C@@H]5CO6)nc34)c(C(F)F)n2)CC1 (stereo partly shown) [I-491] :: 100 to 1000 nM
4. O=C1CCC(N2C(=O)c3cccc(NCC4CC5(C4)CN(C[C@H]4CC[C@H](n6cc(NC(=O)c7cnn8ccc(N9C[C@H]%10C[C@@H]9CO%10)nc78)c(C(F)F)n6)CC4)C5)c3C2=O)C(=O)N1 (stereo partly shown) [I-461] :: 100 to 1000 nM
5. O=C1CCC(n2c3cccc(CCCN4CC5(CCN(C[C@H]6CC[C@H](n7cc(NC(=O)c8cnn9ccc(N%10C[C@H]%11C[C@@H]%10CO%11)nc89)c(C(F)F)n7)CC6)CC5)C4)c3c3cccnc32)C(=O)N1 (stereo partly shown) [I-519] :: 10 to 100 nM

# per-item lookup of DC50; items listed below
1. C[C@@H]1CN(c2ccn3ncc(C(=O)Nc4cn([C@H]5CC[C@H](CN6CCC(CCCc7cccc8c7n(C)c(=O)n8C7CCC(=O)NC7=O)CC6)CC5)nc4C(F)F)c3n2)C[C@H](C)O1 (stereo partly shown) [I-540]
2. CN(C[C@H]1CC[C@H](n2cc(NC(=O)c3cnn4ccc(N5CCOCC5)nc34)c(C(F)F)n2)CC1)[C@H]1C[C@H](Nc2cccc3c2C(=O)N(C2CCC(=O)NC2=O)C3=O)C1 (stereo partly shown) [I-458]
3. O=C1CCC(N2C(=O)c3cccc(NCC4CC5(CCN(Cc6ccc(-n7cc(NC(=O)c8cnn9ccc(N%10C[C@H]%11C[C@@H]%10CO%11)nc89)c(C(F)F)n7)cc6)CC5)C4)c3C2=O)C(=O)N1 (stereo partly shown) [I-462]
4. Cn1c(=O)n(C2CCC(=O)NC2=O)c2cccc(C#CCCCNC[C@H]3CC[C@H](n4cc(NC(=O)c5cnn6ccc(N7C[C@H]8C[C@@H]7CO8)nc56)c(C(F)F)n4)CC3)c21 (stereo partly shown) [I-518]
5. CN(CCC(C)(C)O)c1ccn2ncc(C(=O)Nc3cn([C@H]4CC[C@H](CN(C)[C@H]5CC[C@H](Nc6cccc7c6C(=O)N(C6CCC(=O)NC6=O)C7=O)CC5)CC4)nc3C(F)F)c2n1 (stereo partly shown) [I-504]
6. CN(CCCC#Cc1ccc2c(c1)n(C)c(=O)n2C1CCC(=O)NC1=O)C[C@H]1CC[C@H](n2cc(NC(=O)c3cnn4ccc(N5C[C@H]6C[C@@H]5CO6)nc34)c(C(F)F)n2)CC1 (stereo partly shown) [I-546]
7. Cn1c(=O)n(C2CCC(=O)NC2=O)c2cccc(CCCOC3CCN(CCCCn4ncc(NC(=O)c5cnn6ccc(N7CCOCC7)nc56)c4C(F)F)CC3)c21 (stereo not shown) [I-488]

Reply text:
1. 10 to 100 nM
2. 100 to 1000 nM
3. 100 to 1000 nM
4. 10 to 100 nM
5. > 1000 nM
6. 100 to 1000 nM
7. 100 to 1000 nM
